Overview of reported Activity across a group of compounds:
target: ATP-dependent translocase ABCB1 (Homo sapiens); assay: Induction of P-gp in human LS180 cells assessed as […] in intracellular accumulation of Rh123 at 100 nM using Rho123 as substrate preincubated for 48 hrs followed by addition of Rh123 and measured after 90 mins by fluorescence based assay relative to control; format: cell-based; conditions: ls180, 48 h preincubation, then 1.5 h with Rh123, 0.1 µM
Sequence (P08183 whole entry): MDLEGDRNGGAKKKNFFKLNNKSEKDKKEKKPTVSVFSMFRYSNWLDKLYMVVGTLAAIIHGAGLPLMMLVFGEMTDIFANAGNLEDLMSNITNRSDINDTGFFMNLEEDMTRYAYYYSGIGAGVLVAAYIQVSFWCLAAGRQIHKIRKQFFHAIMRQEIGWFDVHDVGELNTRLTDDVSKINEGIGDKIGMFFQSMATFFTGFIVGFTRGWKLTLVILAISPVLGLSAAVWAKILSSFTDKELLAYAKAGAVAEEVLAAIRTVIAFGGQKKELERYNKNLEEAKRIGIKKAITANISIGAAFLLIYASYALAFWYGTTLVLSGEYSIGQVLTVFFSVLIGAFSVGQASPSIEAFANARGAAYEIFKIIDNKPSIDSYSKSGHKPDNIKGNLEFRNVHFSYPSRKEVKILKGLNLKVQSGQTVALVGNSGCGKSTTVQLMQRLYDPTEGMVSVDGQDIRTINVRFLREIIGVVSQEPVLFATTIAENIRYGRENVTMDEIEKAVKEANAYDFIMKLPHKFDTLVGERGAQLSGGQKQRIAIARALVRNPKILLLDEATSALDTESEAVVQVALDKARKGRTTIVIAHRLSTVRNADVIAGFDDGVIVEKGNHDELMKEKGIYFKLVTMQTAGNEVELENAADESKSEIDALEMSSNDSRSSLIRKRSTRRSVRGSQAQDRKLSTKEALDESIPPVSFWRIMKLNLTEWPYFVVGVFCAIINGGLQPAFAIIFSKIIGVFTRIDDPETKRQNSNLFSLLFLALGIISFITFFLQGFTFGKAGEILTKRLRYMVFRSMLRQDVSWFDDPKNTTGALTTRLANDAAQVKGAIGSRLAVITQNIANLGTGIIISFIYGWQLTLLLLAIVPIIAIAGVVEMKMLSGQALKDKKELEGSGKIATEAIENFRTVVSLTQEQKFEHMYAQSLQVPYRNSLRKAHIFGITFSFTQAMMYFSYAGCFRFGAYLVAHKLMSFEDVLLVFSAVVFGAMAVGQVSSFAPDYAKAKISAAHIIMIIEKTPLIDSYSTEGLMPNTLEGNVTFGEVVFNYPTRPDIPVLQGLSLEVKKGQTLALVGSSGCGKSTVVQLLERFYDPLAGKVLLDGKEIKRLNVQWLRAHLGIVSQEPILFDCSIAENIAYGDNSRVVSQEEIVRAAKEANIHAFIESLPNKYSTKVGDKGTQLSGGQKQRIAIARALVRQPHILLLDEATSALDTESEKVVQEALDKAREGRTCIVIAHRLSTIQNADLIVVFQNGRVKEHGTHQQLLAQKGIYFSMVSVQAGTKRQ
quantity_kind: Activity

> print(dat)
                                smiles.text  reading
1  COc1cc2c(c(OC)c1OC)-c1ccc(=N)c(O)cc1[C@@H](NC(C)=O)CC2  107.41%
2  COc1cc2c(c(OC)c1OC)-c1ccc(N3CCN(C)CC3)c(=O)cc1[C@@H](NC(C)=O)CC2  102.82%
3  COc1cc2c(c(OC)c1OC)-c1ccc(Nc3ccc(Cl)c(C(F)(F)F)c3)c(=O)cc1[C@@H](NC(C)=O)CC2   90.29%
4  COc1cc2c(c(OC)c1OC)-c1ccc(N3CCC(c4ccccc4)CC3)c(=O)cc1[C@@H](NC(C)=O)CC2  101.03%

* * *

Overview of reported pIC50 across a group of compounds:
system: MCF7; assay: Antiproliferative activity against human MCF7 cells assessed as reduction in cell viability incubated for 24 hrs by SRB assay; type: functional, cell-based; conditions: MCF7, 24 h
pIC50: −log10 of the molar value.

compound	value_relation_sign	pIC50
COc1cc2c(c(OC)c1OC)-c1ccc(SC)c(=O)cc1[C@@H](NC(=O)Cc1ccccc1Nc1c(Cl)cccc1Cl)CC2	=	6.53
COc1cc2c(c(OC)c1OC)-c1ccc(SC)c(=O)cc1[C@@H](NC(=O)CC[C@H](NC(=O)c1ccc(NCc3cnc4nc(N)nc(O)c4n3)cc1)C(=O)O)CC2	=	6.16
C=C(C)[C@@H]1CC=C(C(=O)N[C@H]2CCc3cc(OC)c(OC)c(OC)c3-c3ccc(SC)c(=O)cc32)CC1	=	8.28
COc1cc2c(c(OC)c1OC)-c1ccc(SC)c(=O)cc1[C@@H](NC(=O)CCC1=C(C)c3cc4[nH]c(cc5nc(cc6[nH]c(cc1n3)c(CCC(=O)N[C@H]1CCc3cc(OC)c(OC)c(OC)c3-c3ccc(SC)c(=O)cc31)c6C)C(C(C)O)=C5C)c(C(C)O)c4C)CC2 (some centres undefined)	=	5.49
COc1cc2c(c(OC)c1OC)-c1ccc(OC)c(=O)cc1[C@@H](NC(C)=O)CC2	<	6.52
COc1cc2c(c(OC)c1OC)-c1ccc(SC)c(=O)cc1[C@@H](NC(=O)[C@H](O)[C@@H](O)[C@H](O)[C@H](O)CO)CC2	=	8.11
COc1cc(/C=C/C(=O)N[C@H]2CCc3cc(OC)c(OC)c(OC)c3-c3ccc(SC)c(=O)cc32)ccc1O	=	8.25
CC/C=C\C/C=C\C/C=C\C/C=C\C/C=C\C/C=C\CCC(=O)N[C@H]1CCc2cc(OC)c(OC)c(OC)c2-c2ccc(SC)c(=O)cc21	=	6.31
CCCCCCCCCCCCCC[C@H]1OC(C)(C)O[C@H]1[C@@H](NC(=O)OC(C)(C)C)C(=O)N[C@H]1CCc2cc(OC)c(OC)c(OC)c2-c2ccc(SC)c(=O)cc21	=	6.52
